B1: library; a variant is named by its letters at N, in order (parent)
chain: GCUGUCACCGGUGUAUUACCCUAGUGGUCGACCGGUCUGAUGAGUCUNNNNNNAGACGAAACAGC

Variants of: B1
Test: FACS-Seq fitted mean relative fluorescence mCherry/BFP with ligand (log10 relative fluorescence); ligand: hypoxanthine (xanthine aptamer); ligand concentration (+) FACS-Seq: 5 mM; higher = higher reporter protein expression
Conditions: HEK293T, ligand present: yes
Records here are stratified by FACS-Seq fitted mean (log10); strata: small value: < 0.4; mid value: ≥ 0.4 and < 0.6; large value: ≥ 0.6

Query block: Please let me know in which category the item `AAACUG` belongs.
Result block: mid value

Query block: Sort into band: `CGAUUC`
Result block: small value

Query block: Textbook exercise: identify the category of the variant given here, `AACGCG` , according to its measured value.
Result block: small value

Query block: Category of `GCAGCA` , please.
Result block: large value

Query block: Lab note: which band did `CCACUG` land in?
Result block: mid value

Query block: Which FACS-Seq fitted mean (log10) band matches `GACGUU` ?
Result block: mid value

Query block: Dear colleague, I would appreciate it if you could identify the bin for `GUACAA` and reply at your convenience.
Result block: small value

Query block: Band for `CCGAAA` ?
Result block: large value

Query block: Bin this entry: `UUUUGA`
Result block: mid value

Query block: Form: Item = `UAAUGG` ; Class = ?
Result block: mid value

Query block: Band for the recorded FACS-Seq fitted mean (log10) of `GAUUCG` ?
Result block: small value

Query block: Lab note: which band did `UCCGAG` land in?
Result block: mid value

Query block: Note: place this variant into its band. Item: `CUCACU`
Result block: mid value

Query block: Which of the defined bands does the recorded FACS-Seq fitted mean (log10) of `UAACAA` sit within?
Result block: small value

Query block: Which band does `AGUCGG` fall in?
Result block: small value

Query block: Which of the defined bands does the recorded FACS-Seq fitted mean (log10) of `UGAUUC` sit within?
Result block: large value

Query block: // return the class label for `UUUAAU`
Result block: mid value

Query block: Which class holds `GCUCUG` ?
Result block: large value

Query block: Exam item: assign `UUCGCA` to the correct category.
Result block: mid value

Query block: Which class holds `GACCCG` ?
Result block: small value

Query block: Categorize the following entry: `UGGGUA`
Result block: large value

Query block: Input `AGAAGA` ; output its category
Result block: mid value

Query block: Please classify: `GCGCGG`
Result block: mid value

Query block: Where would `GUUAAC` land among the classes by reported FACS-Seq fitted mean (log10)?
Result block: small value

Query block: Category of `AUGGAA` , please.
Result block: large value

Query block: Could you tell me which band `AUUAGC` belongs to?
Result block: mid value

Query block: Pick a category. Item: `AGGAGG`
Result block: large value

Query block: Using the reported FACS-Seq fitted mean (log10), which band applies to `GGUGGA` ?
Result block: mid value

Query block: Class? Entry: `GUUACG`
Result block: mid value

Query block: State the class of the variant shown: `UAACUA`
Result block: small value

Query block: Which FACS-Seq fitted mean (log10) category applies to `CAGGAU` here?
Result block: mid value

Query block: Tag the class for `UACCUG`
Result block: small value

Query block: Category of `AUUUUU` :
Result block: small value

Query block: Note: place this variant into its band. Item: `AAGACA`
Result block: mid value

Query block: Which FACS-Seq fitted mean (log10) category applies to `AUUGAC` here?
Result block: large value

Query block: For `GUGUGU` , which FACS-Seq fitted mean (log10) bin applies?
Result block: mid value

Query block: Which FACS-Seq fitted mean (log10) band matches `CCGACG` ?
Result block: large value

Query block: Looking at `ACAAGA` , which class would you pick?
Result block: small value

Query block: Class for `CGCUAG` ?
Result block: small value

Query block: Please report the category associated with `AUAAGU` , nothing else.
Result block: small value

Query block: Categorize the following entry: `AGAACG`
Result block: large value
